Exercise: for every item that follows, state its recorded IC50.
State the answer as a number, implicitly in nM.

Provide the documented IC50 with human PDE4D (Homo sapiens, UniProt Q08499) as the system for COc1cccc(-c2nc(C3CCC(C(=O)O)CC3)cc3cccnc23)c1 (centres unmarked) [Example 10] 25

Notebook entry, human PDE4D (Homo sapiens, UniProt Q08499) assay: IC50 of O=C(O)C1CCC(c2cc3cccnc3c(-c3cccc(OC(F)(F)F)c3)n2)CC1 (centres unmarked) [Example 14] = ? 57

Which IC50 is reported with human PDE4D (Homo sapiens, UniProt Q08499) for this entry: O=C(O)C1CCC(c2cc3cccnc3c(-c3cccc(F)c3)n2)CC1 (centres unmarked) [Example 12] ? 21

Return IC50 measured with human PDE4D (Homo sapiens, UniProt Q08499) given this molecule: CCOC(=O)C1CCC(c2cc3cccnc3c(-c3cccc(C#N)c3)n2)CC1 (centres unmarked) [Example 1] 38

Which measured IC50 belongs to N#Cc1cccc(-c2nc(C3CCC(C(=O)O)CC3)cc3cccnc23)c1 (centres unmarked) [Example 3] , tested on human PDE4D (Homo sapiens, UniProt Q08499)? 9
